# Measured Target: Human PD-L1/PD-1 (Homo sapiens, UniProt Q9NZQ7)
# Construct: made in house; host or cells: HEK293T
# Sequence (Q9NZQ7 with tags, fused parts or gaps): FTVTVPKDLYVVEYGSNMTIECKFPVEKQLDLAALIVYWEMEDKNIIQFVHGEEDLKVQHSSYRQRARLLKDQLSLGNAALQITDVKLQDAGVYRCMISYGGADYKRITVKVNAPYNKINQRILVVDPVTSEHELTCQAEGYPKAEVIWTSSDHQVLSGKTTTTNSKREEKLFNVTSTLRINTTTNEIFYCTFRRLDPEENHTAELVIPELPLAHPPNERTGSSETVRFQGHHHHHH
# Protocol Details: HTRF PD-1-Ig/PD-L1-His binding assay (human PD-L1)
# Condition Parameters: cluster symbol; read-out: HTRF IC50 cluster
Positions of bridges follow the written chain, without caps; N, C: chain ends. Non-standard residues stand in square brackets, D forms with d. Residues, ends and D or L forms follow the SMILES beside them. NMeNle = CCCC[C@H](NC)C(=O)O; NMeA = CN[C@@H](C)C(=O)O; Dab = NCC[C@H](N)C(=O)O; Sar = CNCC(=O)O
Each record here notes measured IC50.

Q. Given CCCC[C@H]1C(=O)N(C)[C@@H](CCCC)C(=O)N[C@@H](Cc2cccnc2)C(=O)N[C@H](C(=O)NCC(N)=O)CSCC(=O)N[C@@H](Cc2ccc(O)cc2)C(=O)N(C)[C@@H](C)C(=O)N[C@@H](CC(N)=O)C(=O)N2CCC[C@H]2C(=O)N[C@@H](Cc2cnc[nH]2)C(=O)N[C@@H](CC(C)C)C(=O)N2C[C@H](O)C[C@H]2C(=O)N[C@@H](Cc2c[nH]c3ccccc23)C(=O)N[C@@H](CO)C(=O)N[C@@H](Cc2c[nH]c3ccccc23)C(=O)N1C [Example 7033] , respond with its IC50.
A. 0.385 to 6.74 nM

Please turn your attention to the following entry.
Q. Tell me its IC50 given CCCC[C@H]1C(=O)N(C)[C@@H](CCCC)C(=O)N[C@@H](CCCNC(=N)N)C(=O)N[C@H](C(=O)NCC(N)=O)CSCC(=O)N[C@@H](Cc2ccccc2)C(=O)N(C)[C@@H](C)C(=O)N[C@@H](CC(N)=O)C(=O)N2CCC[C@H]2C(=O)N[C@@H](Cc2cnc[nH]2)C(=O)N[C@@H](CC(C)C)C(=O)N(C)CC(=O)N[C@@H](Cc2c[nH]c3ccccc23)C(=O)N[C@@H](CCN)C(=O)N[C@@H](Cc2c[nH]c3ccccc23)C(=O)N1C [Example 5001] ({CH2CO}-F[NMeA]NPHL[Sar]W[Dab]W[NMeNle][NMeNle]RCG-NH2; thioether N-14) as the entry.
A. 0.385 to 6.74 nM
